meta.source: patent US20030148956A1

Target: T1, CRF2R
T1 sequence (Q13324 whole entry, species assumed, looked up): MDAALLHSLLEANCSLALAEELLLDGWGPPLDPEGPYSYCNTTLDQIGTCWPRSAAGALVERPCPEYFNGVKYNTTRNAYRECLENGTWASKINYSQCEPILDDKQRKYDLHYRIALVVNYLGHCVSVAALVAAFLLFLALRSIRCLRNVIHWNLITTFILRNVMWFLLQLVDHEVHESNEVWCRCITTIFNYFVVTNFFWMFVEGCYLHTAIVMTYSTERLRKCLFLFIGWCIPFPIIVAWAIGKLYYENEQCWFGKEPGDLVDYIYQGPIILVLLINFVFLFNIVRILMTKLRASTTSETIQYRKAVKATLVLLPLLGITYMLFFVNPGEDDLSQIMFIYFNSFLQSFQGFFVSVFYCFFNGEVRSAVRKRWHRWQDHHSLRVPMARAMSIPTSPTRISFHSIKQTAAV
Test: cell-based or functional assay
Ends that are not written are not given here.
So basically: CRF2R EC50 at 20 nM or higher? That is t. Lower than 20 nM? That is f.

>  <binder>
ZGPPISIDLPFQLLRKMIEIEKQEKEKQQAANNRLLLDTI (C-terminal amide) [SEQ ID NO 84]

>  <class label>
f

$$$$
>  <binder>
ZGPPISIDLPNYLLRKMIEIEKQEKEKQQAANNRLLLDTI (C-terminal amide) [SEQ ID NO 64]

>  <class label>
t

$$$$
>  <binder>
ZGPPISIDLPYILLRKMIEIEKQEKEKQQAANNRLLLDTI (C-terminal amide) [SEQ ID NO 204]

>  <class label>
f

$$$$
>  <binder>
IVLSLDVPIGLLQILLEQTKARAAREQATTNARILARV-NH2 [SEQ ID NO 129]

>  <class label>
f

$$$$
>  <binder>
IVLSLEVPIGLLQILLEQARARAAREQATTNARILARV-NH2 [SEQ ID NO 120]

>  <class label>
t

$$$$
>  <binder>
ZGPPISIDLPPYLLRKMIEIEKQEKEKQQAANNRLLLDTI (C-terminal amide) [SEQ ID NO 57]

>  <class label>
t

$$$$
>  <binder>
ZGPPISIDLSLELLRKMIEIEKQEKEKQQAANNALLLATI (C-terminal amide) [SEQ ID NO 30]

>  <class label>
f

$$$$
>  <binder>
ZGPPISIDLPILLLRKMIEIEKQEKEKQQAANNRLLLDTI (C-terminal amide) [SEQ ID NO 35]

>  <class label>
f

$$$$
>  <binder>
DNPSLSIDLPLFLLRTLLELARTQSQRERAEQNAIIFASV-NH2 [SEQ ID NO 178]

>  <class label>
f

$$$$
>  <binder>
ZGPPISIDLPFLLLRKMIEIEKQEKEKQQAANNRLLLDTI (C-terminal amide) [SEQ ID NO 191]

>  <class label>
f

$$$$
>  <binder>
DNPSLSIDLPLYLLRTLLELARTQSQRERAEQNAIIFASV-NH2 [SEQ ID NO 177]

>  <class label>
f

$$$$
>  <binder>
ZGPPISIDLPGYLLRKMIEIEKQEKEKQQAANNRLLLDTI (C-terminal amide) [SEQ ID NO 63]

>  <class label>
t

$$$$
>  <binder>
IVLSLDVPIGLLQILLEQAKADAAREQATTNARILARV-NH2 [SEQ ID NO 131]

>  <class label>
f

$$$$
>  <binder>
IVLSLDVPIGLLQILLEQEKARAAREQATTNARILARV-NH2 [SEQ ID NO 121]

>  <class label>
f

$$$$
>  <binder>
DNPSLSIDLPLQLLRTLLELARTQSQRERAEQNAIIFASV-NH2 [SEQ ID NO 176]

>  <class label>
f

$$$$
>  <binder>
ZGPPISIDLPTTLLRKMIEIEKQEKEKQQAANNRLLLDTI (C-terminal amide) [SEQ ID NO 42]

>  <class label>
t

$$$$
>  <binder>
ZGPPISIDLPTDLLRKMIEIEKQEKEKQQAANNRLLLDTI (C-terminal amide) [SEQ ID NO 49]

>  <class label>
t

$$$$
>  <binder>
ZGPPISIDLPTFLLRKMIEIEKQEKEKQQAANNRLLLDTI (C-terminal amide) [SEQ ID NO 44]

>  <class label>
f

$$$$
>  <binder>
ZGPPISIDLPFQLLRKMIEIEKQEKEKQQATTNARLLARV (C-terminal amide) [SEQ ID NO 23]

>  <class label>
f

$$$$
>  <binder>
ZGPPISIDLPIQLLRKMIEIEKQEKEKQQATTNARILARV (C-terminal amide) [SEQ ID NO 150]

>  <class label>
t

$$$$
>  <binder>
IVLSLDVPIGLLQILLEQEKQEKEKQQATTNARILARV-NH2 [SEQ ID NO 167]

>  <class label>
f

$$$$
>  <binder>
IVLSLDVPIGLLQILLEQERQRAAREQATTNARILARV-NH2 [SEQ ID NO 111]

>  <class label>
f

$$$$
>  <binder>
ZGPPISIDLPTGLLRKMIEIEKQEKEKQQAANNRLLLDTI (C-terminal amide) [SEQ ID NO 73]

>  <class label>
t

$$$$
>  <binder>
ZGPPISIDLPAHLLRKMIEIEKQEKEKQQAANNRLLLDTI (C-terminal amide) [SEQ ID NO 206]

>  <class label>
t

$$$$
